System Name: T1, HLA-A*24:02 (human)
T1 construct: whole, on cells; MHC class I molecule, empty until peptide is added; detected with FITC anti-HLA-A24 antibody 17A10
Experiment Summary: MHC class I stabilization on T2-A24 cells, flow cytometry, 100 ug/mL peptide
Recorded Metric: MFI (solvent ratio)

FLAEEEINYI [FAM83B-derived peptide F55_10] yielded MFI (solvent ratio) of 1.2 ratio to solvent

VIALVMDIFT [FAM83B-derived peptide F149_10] yielded MFI (solvent ratio) of 2.1 ratio to solvent

KVIALVMDIF [FAM83B-derived peptide F148_10] yielded MFI (solvent ratio) of 2.6 ratio to solvent

SMVQIITGQLV [FAM83B-derived peptide F256_11] yielded MFI (solvent ratio) of 1.1 ratio to solvent

// provenance: patent US20160310583A1
